Tested on: SK-MEL-28 melanoma
Test name: NCI-60 one-dose screen, 48 h
Study conditions: 10 µM unless noted
The panel holds about 83,000 compounds, 20% with a hit somewhere; the sample as a whole holds those more often. The source made the active and inactive calls. How the source made its calls: active means growth percent below 10; inactive means the rest.
Classes used: Yes = active, No = inactive

>  <Molecule>
O=C(Nc1ccc(Cl)cc1)Nc1nccs1

>  <Class label>
No

$$$$
>  <Molecule>
CCOC(=O)[C@@H](C)C[C@H](Cc1ccccc1)NC(=O)c1nc([C@@H](C[C@H](C(C)C)N(C)C(=O)[C@@H](NC(=O)[C@H]2CCCCN2C)C(C)C)OC(C)=O)sc1CCOCc1ccccc1

>  <Class label>
Yes

$$$$
>  <Molecule>
O=C(N/N=C/c1ccc(N(CCCl)CCCl)cc1)c1cccc2ccccc12

>  <Class label>
No

$$$$
>  <Molecule>
CC12CCC3C(CCC4=CC(=O)CCC43CF)C1CCC2=O (stereo not given)

>  <Class label>
No

$$$$
>  <Molecule>
O=C1OCCC1Br (stereo not given)

>  <Class label>
No

$$$$
>  <Molecule>
O=NNc1ccccn1

>  <Class label>
No

$$$$
>  <Molecule>
Cn1cc(C=O)c2nccnc21

>  <Class label>
No

$$$$
>  <Molecule>
CCOC(=O)[C@@H](C)C[C@H](Cc1ccccc1)NC(=O)c1csc([C@@H](C[C@H](C(C)C)N(C)C(=O)[C@@H](NC(=O)[C@H]2CCCCN2C)C(C)(C)C)OC(C)=O)n1

>  <Class label>
No

$$$$
>  <Molecule>
Fc1ccc(C2=CCNCC2)cc1

>  <Class label>
No

$$$$
>  <Molecule>
COc1ccc(/C=C\c2cc(OC)c(OC)c(OC)c2)cc1NC(=O)/C=C/c1cc(OC)c(OC)c(OC)c1

>  <Class label>
No

$$$$

====

System: EKVX NSCLC
Test name: NCI-60 one-dose screen, 48 h (100 = growth as untreated, 0 = no growth, -100 = all killed)
Study conditions: 10 µM unless noted
This is part of a sample that, as a whole, favours compounds with a hit. Of some 83,000 tested, about 20% had one in any assay.
Quick reference: growth of the listed items.

>  <Molecule>
COc1cc(/C=N/C2=C(C#N)C(c3ccco3)c3c(c4cc(C)ccc4oc3=O)O2)cc(OC)c1OC (centres undefined)

>  <Measured target>
EKVX NSCLC

>  <growth, %>
95.1

$$$$
>  <Molecule>
CC(=O)C(c1c(O)c2ccccc2oc1=O)c1cc(=O)oc2c1ccc1ccccc12 (centres undefined)

>  <Measured target>
EKVX NSCLC

>  <growth, %>
92.1

$$$$
>  <Molecule>
CN(C)C(=O)Oc1ccccc1

>  <Measured target>
EKVX NSCLC

>  <growth, %>
104

$$$$
>  <Molecule>
CC[CH2][Sn]([Cl])([Cl])[CH2]CC

>  <Measured target>
EKVX NSCLC

>  <growth, %>
104

$$$$
>  <Molecule>
COC(=O)[C@H](Cc1c[nH]c2ccccc12)NC(=O)[C@@H](OC)[C@@H]1Cc2cc3cc(OC4CC(OC5CC(O)C(O)C(C)O5)C(O)C(C)O4)c(C)c(O)c3c(O)c2C(=O)[C@H]1OC1CC(OC2CC(OC3CC(C)(O)C(O)C(C)O3)C(O)C(C)O2)C(O)C(C)O1 (some centres undefined)

>  <Measured target>
EKVX NSCLC

>  <growth, %>
3.61

$$$$
>  <Molecule>
CC(=O)O[C@@H]1CC[C@]2(C)[C@H]3CC[C@]4(C)C(=O)CC[C@H]4[C@@H]3C[C@@H]3SC(N)=N[C@@]32C1

>  <Measured target>
EKVX NSCLC

>  <growth, %>
78.3

$$$$
>  <Molecule>
O=C1NC(=O)C(=Cc2cn(CCCCCCn3c4ccccc4c(=O)c4ccccc43)c3ccccc23)C(=O)N1

>  <Measured target>
EKVX NSCLC

>  <growth, %>
89.8

$$$$
>  <Molecule>
Clc1cccc(N2COOC3(OOC2)C2CC4CC(C2)CC3C4)c1

>  <Measured target>
EKVX NSCLC

>  <growth, %>
94.2

$$$$
>  <Molecule>
O=C(CC1(O)C(=O)N(Cc2ccccc2)c2ccc(Br)cc21)c1ccc(C(=O)NCC2CCC3(CC2)OOC2(CCCCC2)OO3)cc1 (centres undefined)

>  <Measured target>
EKVX NSCLC

>  <growth, %>
-65

$$$$
>  <Molecule>
O=P1(NCCCl)OCCCN1CCCl (centres undefined)

>  <Measured target>
EKVX NSCLC

>  <growth, %>
105

$$$$
>  <Molecule>
COc1cccc2c1c(C(=O)c1ccco1)cn2Cc1ccc(F)cc1

>  <Measured target>
EKVX NSCLC

>  <growth, %>
172

$$$$
>  <Molecule>
c1ccc(Nc2nc(-c3ccccc3)c[se]2)cc1

>  <Measured target>
EKVX NSCLC

>  <growth, %>
70.3

$$$$
>  <Molecule>
O=[N+]([O-])c1cc([N+](=O)[O-])c(Nn2c3ccccc3c3ccccc32)c([N+](=O)[O-])c1

>  <Measured target>
EKVX NSCLC

>  <growth, %>
6.19

$$$$
>  <Molecule>
O=[N+]([O-])c1ccc([Se]C2CCCCC2Cl)c([N+](=O)[O-])c1 (centres undefined)

>  <Measured target>
EKVX NSCLC

>  <growth, %>
46

$$$$
>  <Molecule>
Cc1ccc(S(=O)(=O)C(Cl)(Cl)Cl)cc1

>  <Measured target>
EKVX NSCLC

>  <growth, %>
101

$$$$
>  <Molecule>
Clc1ccc(COC(Cn2ccnc2)c2ccc(Cl)cc2Cl)cc1 (centres undefined)

>  <Measured target>
EKVX NSCLC

>  <growth, %>
30.7

$$$$
>  <Molecule>
Cn1cc(C=O)c2nccnc21

>  <Measured target>
EKVX NSCLC

>  <growth, %>
96.9

$$$$
>  <Molecule>
CN[C@]1(c2ccccc2Cl)CCCC[C@H]1NCCCN1CCN(C)CC1

>  <Measured target>
EKVX NSCLC

>  <growth, %>
92

$$$$
>  <Molecule>
CC(C)=CCc1c(O)c(C(=O)CC(C)C)c(O)c2c(-c3ccccc3)cc(=O)oc12

>  <Measured target>
EKVX NSCLC

>  <growth, %>
36.7

$$$$
